Recorded GI50 values for a group of compounds are listed next.
tested on: SK-OV-3; assay: NCI tumour cell line growth inhibition, 48 h
Calls of active or inactive are those of the source. Rule as the data show it: active = GI50 up to about 1.1 µM and inactive = higher.

COMPOUND	GI50
O=C(O)c1ccccc1/C=C1\Cc2ccc3c(c2C1=O)CCCC3	94.8 µM (inactive)
Cc1ccc(-n2cc(-c3ccc(Cl)cc3)c3c2N=CN2N=C(c4cccs4)NC32)cc1 (stereo not drawn)	14.9 µM (inactive)
O=C1C(c2ccc([N+](=O)[O-])cc2)=[N+]([O-])c2ccc([N+](=O)[O-])cc21	36.4 µM (inactive)
O=C1COc2cc3c(cc2N1)SCC(=O)N3	> 100 µM (inactive)
[O-][N+]1=C(c2ccccc2)COc2ccccc21	> 100 µM (inactive)
COC1(C)/C=N/CC(C)(C)NC(=O)C(C)(OC)/C=N/CC(C)(C)NC1=O (stereo not drawn)	> 10 µM (inactive)
CCCCC1=CC1(C#N)[N+](=O)[O-] (stereo not drawn)	> 100 µM (inactive)
CC(C)(C)C(=O)Nc1cccc(-c2ccc[nH]2)n1	> 100 µM (inactive)
CCOC(=O)c1ccc(C(=O)/C(C#N)=C2\CCCN2)n1C	> 100 µM (inactive)
COc1ccc(CC2C3=C(CCN2C(=O)C2CCC2)CC2(CC3)OCCO2)cc1O (stereo not drawn)	30.5 µM (inactive)
CCCCCCCCCCCCCCCCCCNc1ccn(C2OC(COP(=O)(O)OCC3OC(n4cc(C)c(=O)[nH]c4=O)CC3N=[N+]=[N-])C(O)C2O)c(=O)n1 (stereo not drawn)	18.9 µM (inactive)
Cc1ccc2nc(NC(=O)/C(=N\NC(=S)NN)C3C(=O)NC(=S)NC3=O)sc2c1	> 100 µM (inactive)
COc1ccc(OC/C(N)=N/NC(=O)c2ccncc2)cc1	> 100 µM (inactive)

---

system: MDA-MB-231; assay: NCI tumour cell line growth inhibition, 48 h
Active and inactive are the calls of the source. Cut-off read from the data, not from the text of the source: active = GI50 up to about 1.1 µM and inactive = higher.
Outcomes: active, inactive

MOLECULE	MEASURED TARGET	ASSIGNED CLASS
CCC1(O)C(=O)OCc2c1cc1n(c2=O)Cc2cc3cc4c(cc3nc2-1)OCO4 (centres undefined)	MDA-MB-231	active
O=C1CCCC2=C1C(c1ccc3c(c1)OCO3)Nc1ccc3ccccc3c12 (centres undefined)	MDA-MB-231	inactive
[N-]=[N+]=CC(=O)OCC1SCCCS1	MDA-MB-231	inactive
O=C(/N=N/c1ccccc1Br)NNc1ccccc1Br	MDA-MB-231	inactive

---

test system: U-251; assay: NCI tumour cell line growth inhibition, 48 h
Active and inactive are the calls of the source. No stated cut-off is given here; in the data, active = GI50 up to about 1.1 µM and inactive = higher.
Outcomes: T for active, F for inactive

COMPOUND	ASSIGNED CLASS
CNC(=O)N(C)C(=O)c1ccccc1C(=O)N(C)C(=O)NC	F
Nc1ccc2c(c1)NC(=O)[C@@H]1CCCN1C2=O	F
CC(=O)N1c2ccccc2Sc2cc(C(O)(C(F)(F)F)C(F)(F)F)ccc21	F
O=C(Nc1cccc(C(=O)NCCCO)c1)/C(=C/c1ccccc1)NC(=O)c1ccccc1	F
COc1ccccc1CCN1CCN(CCCc2ccccc2)CC1	F
O=C(CN1CCOCC1)Nc1nc(-c2ccc(Cl)cc2)cs1	F
NCCN(CCN(C(=O)Nc1ccccc1)c1ccccc1)C(=O)Nc1ccccc1	F
C/C(=N/NS(=O)(=O)c1ccc([N+](=O)[O-])cc1)c1cccc[n+]1[O-]	F
CCOc1c(/N=N/c2ccccc2Cl)c(-c2ccccc2)nn1C(=S)S	F
O=C(CCc1cc(O)cc(O)c1)NCCc1cc(O)cc(OCc2ccccc2)c1	F
OCc1cn(C(c2ccccc2)(c2ccccc2)c2ccccc2)cn1	F
CCC(O)C1Cc2c(C)cc3c(c2O1)C(=O)c1ccccc1C3=O (stereo not drawn)	F
CC(=O)CC1=C(OC(C)C)C2(OCCO2)C1O (stereo not drawn)	F
CCCC[C@H](CCc1ccccc1)N(C(=O)OC)N1CCC[C@H]1COC	F
NCCn1cnc2nc(NC(=O)c3ccccc3)[nH]c(=O)c21	F
C=CS(=O)(=O)CCN1CC1	F
COc1ccc2nc(NC(=O)C(=O)C(C#N)c3ccc([N+](=O)[O-])cc3)sc2c1 (stereo not drawn)	F
C=C(c1ccccc1)C1(O)CCCCC1N (stereo not drawn)	F
Cc1cc2oc3c(ccc(=O)n3C)c(=O)c2c(C)c1Cl	F
O=S(=O)(c1ccccc1)n1cc(C[P+](c2ccccc2)(c2ccccc2)c2ccccc2)c2ccccc21	F
Clc1cc(C(c2cc(Cl)sc2Cl)c2cc(Cl)sc2Cl)c(Cl)s1	F
CCCCC1(N=[N+]=[N-])C(=O)C2C=CC=C3c4ccccc4N(C1=O)C32 (stereo not drawn)	F
Nc1cc2[nH]cnc2c(=O)[nH]1	F
C=C1C(=O)O[C@@H]2[C@H]3O[C@]3(C)CCC=C(C)CC[C@@H]12	F
CCCCCCCCCCCCCCCCCCNc1ccn(C2OC(COP(=O)(O)OCC3OC(n4cc(C)c(=O)[nH]c4=O)CC3N=[N+]=[N-])C(O)C2O)c(=O)n1 (stereo not drawn)	F
O=C1C=CC(=O)C2=C1[C@@H](O)C1CC=CC3C(=O)O[C@@H]2C31 (stereo partly drawn)	F
CCCCCCCCCCCOc1ccc(C(=O)C(=O)c2ccc(OCCCCCCCCCCC)c(OCCCCCCCCCCC)c2)cc1OCCCCCCCCCCC	F
CCCOC(=O)c1cc(C(=CCC[C@H]2CC[C@@]3(C)[C@@H](CC[C@@H]4[C@@H]3CC[C@]3(C)[C@@H](C(C)CCCC(C)C)CC[C@@H]43)C2)c2cc(Cl)c(O)c(C(=O)OCCC)c2)cc(Cl)c1O (stereo partly drawn)	F
C1=C\SS/C=C\SS/C=C\SS/C=C\SS/1	F
CCOC(=O)c1nc2c(nc1C(=O)OCC)C(=O)c1ccccc1C2=O	T
Nc1c(C(=O)O)nnc2ccc(Cl)cc12	F
Nc1ccc(C(=O)CC2(O)C(=O)Nc3c(Cl)cc(Cl)cc32)cc1 (stereo not drawn)	F
O=C(O)c1cc(CCc2ccc(O)c(O)c2)ccc1O	F
CCOP(=O)(OCC)C1CC(n2cc(C)c(=O)[nH]c2=O)OC1CO (stereo not drawn)	F
Cc1ccc(S(=O)(=O)c2ccc(N)cc2)cc1	F
CC(C)(O)C1CC[C@]2(C)[C@H]3CC[C@@H]4[C@@]5(C)CCCC(C)(C)[C@@H]5CC[C@@]4(C)[C@]3(C)CC[C@@H]12 (stereo partly drawn)	F
CC(=O)N(C(C)=O)n1nc2c(n1)C(=O)c1ccccc1C2=O	F
Cc1ccccc1NC(=O)NC(Oc1ccccc1)(C(F)(F)F)C(F)(F)F	F
